# Assay Overview: in vitro
# Condition: rat, serum
Bridge positions count the residues as written; N and C are the ends. Square brackets hold non-standard residues; d marks the D form. Peptide text beside a SMILES is read from it. * marks the point of attachment. Camptothecin(20S-OCO) = CC[C@@]1(OC(=O)*)C(=O)OCc2c1cc1n(c2=O)Cc2cc3ccccc3nc2-1; Gly(N(CH2)3NH2) = NCCCNCC(=O)O; Nle = CCCC[C@H](N)C(=O)O
Property Name: half-life (h)
Number in h, nothing else.

Data request: Fill in reported half-life for this entry: CCCC[C@H](NC(=O)[C@@H](CO)NC(=O)CN(CCCN)C(=O)O[C@]1(CC)C(=O)OCc2c1cc1n(c2=O)Cc2cc3ccccc3nc2-1)C(=O)N[C@H](Cc1ccc(O)cc1)C(=O)N[C@H](CO)C(=O)N[C@H]1CSSC[C@@H](C(=O)N[C@H](C(N)=O)[C@@H](C)O)NC(=O)[C@H]([C@@H](C)O)NC(=O)[C@H](CCCCN)NC(=O)[C@@H](Cc2c[nH]c3ccccc23)NC(=O)[C@H](Cc2ccccc2)NC1=O [Compound 4] ({Camptothecin(20S-OCO)}-[Gly(N(CH2)3NH2)][dS][Nle][dY][dS]CF[dW]KTCT-NH2; disulfide 6-11)
Data returned: 72

====

# Tested on: human neuroblastoma IMR32 cells (somatostatin receptor overexpression)
# Assay Overview: MTT cytotoxicity assay, IMR-32 cells
# Condition: human
Numbered stars: 1 amine (or outer) side, 2 acyl side, 3 side chain; on linkers, the order of the positions; unused ones are H or OH. Bridge positions count the residues as written; N and C are the ends. Square brackets hold non-standard residues; d marks the D form. Peptide text beside a SMILES is read from it. * marks the point of attachment. Camptothecin(20S-OCO) = CC[C@@]1(OC(=O)*)C(=O)OCc2c1cc1n(c2=O)Cc2cc3ccccc3nc2-1; Gly(N-2-aminoethyl) = NCCNCC(=O)O; X2 = CN(C)CCN(CC(=O)[*:2])[*:1]; Nle = CCCC[C@H](N)C(=O)O
Item-by-item account of IC50
Express your answer in nM, writing the number without its unit.

{"columns": ["Compound", "Unit Label", "Reported Measurement"],
 "data": [
  ["CCCC[C@H](NC(=O)[C@@H](CO)NC(=O)CN(CCN(C)C)C(=O)O[C@]1(CC)C(=O)OCc2c1cc1n(c2=O)Cc2cc3ccccc3nc2-1)C(=O)N[C@H](Cc1ccc(O)cc1)C(=O)N[C@H](CO)C(=O)N[C@H]1CSSC[C@@H](C(=O)N[C@H](C(N)=O)[C@@H](C)O)NC(=O)[C@H]([C@@H](C)O)NC(=O)[C@H](CCCCN)NC(=O)[C@@H](Cc2c[nH]c3ccccc23)NC(=O)[C@H](Cc2ccccc2)NC1=O [Compound 3] ({Camptothecin(20S-OCO)}-[X2][dS][Nle][dY][dS]CF[dW]KTCT-NH2; disulfide 6-11)", "nM", 571]
]}

Data request: Look up IC50 of CCCC[C@H](NC(=O)[C@@H](CO)NC(=O)CN(CCN)C(=O)O[C@]1(CC)C(=O)OCc2c1cc1n(c2=O)Cc2cc3ccccc3nc2-1)C(=O)N[C@H](Cc1ccc(O)cc1)C(=O)N[C@H](CO)C(=O)N[C@H]1CSSC[C@@H](C(=O)N[C@H](C(N)=O)[C@@H](C)O)NC(=O)[C@H]([C@@H](C)O)NC(=O)[C@H](CCCCN)NC(=O)[C@@H](Cc2c[nH]c3ccccc23)NC(=O)[C@H](Cc2ccccc2)NC1=O [Compound 1] ({Camptothecin(20S-OCO)}-[Gly(N-2-aminoethyl)][dS][Nle][dY][dS]CF[dW]KTCT-NH2; disulfide 6-11) and report it.
Data returned: 374
